TEST TARGET: BIKE (Homo sapiens, UniProt Q9NSY1)
Construct: gene BMP2K; catalytic domain-containing construct
Sequence (Q9NSY1 whole entry, the tested form may be a part): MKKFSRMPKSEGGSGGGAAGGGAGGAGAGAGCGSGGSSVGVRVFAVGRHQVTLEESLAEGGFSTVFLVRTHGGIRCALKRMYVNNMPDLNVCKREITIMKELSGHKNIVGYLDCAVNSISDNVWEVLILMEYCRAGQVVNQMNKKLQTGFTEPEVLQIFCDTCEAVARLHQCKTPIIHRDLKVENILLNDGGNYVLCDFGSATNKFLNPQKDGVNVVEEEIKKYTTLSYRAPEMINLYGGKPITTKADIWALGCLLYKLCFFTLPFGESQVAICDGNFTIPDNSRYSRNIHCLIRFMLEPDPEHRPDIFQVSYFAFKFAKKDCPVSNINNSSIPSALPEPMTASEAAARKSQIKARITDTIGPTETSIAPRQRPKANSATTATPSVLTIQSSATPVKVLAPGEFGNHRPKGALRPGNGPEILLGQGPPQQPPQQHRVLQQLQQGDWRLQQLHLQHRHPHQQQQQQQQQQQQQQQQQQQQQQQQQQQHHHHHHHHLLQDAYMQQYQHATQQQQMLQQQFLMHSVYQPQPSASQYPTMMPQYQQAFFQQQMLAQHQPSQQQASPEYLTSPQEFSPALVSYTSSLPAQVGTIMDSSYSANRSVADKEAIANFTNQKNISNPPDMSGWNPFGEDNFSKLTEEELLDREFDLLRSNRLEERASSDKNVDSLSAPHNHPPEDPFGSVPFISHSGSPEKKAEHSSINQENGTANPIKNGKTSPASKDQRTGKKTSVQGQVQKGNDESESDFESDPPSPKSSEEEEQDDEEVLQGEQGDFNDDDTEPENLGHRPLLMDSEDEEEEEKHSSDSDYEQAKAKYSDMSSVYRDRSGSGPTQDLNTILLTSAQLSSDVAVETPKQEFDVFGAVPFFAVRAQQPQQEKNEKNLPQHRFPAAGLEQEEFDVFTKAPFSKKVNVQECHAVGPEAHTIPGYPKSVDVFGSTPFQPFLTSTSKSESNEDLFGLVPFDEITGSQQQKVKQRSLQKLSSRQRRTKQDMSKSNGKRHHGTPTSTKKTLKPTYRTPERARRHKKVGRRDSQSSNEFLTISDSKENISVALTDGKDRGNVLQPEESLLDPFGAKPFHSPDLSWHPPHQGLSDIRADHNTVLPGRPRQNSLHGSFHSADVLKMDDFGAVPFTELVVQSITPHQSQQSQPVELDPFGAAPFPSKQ
PROCEDURE DETAILS: biochemical
Set-up: Thermal shift assay (DSF, SYPRO Orange), 2 uM kinase domain, mean delta Tm of triplicates versus DMSO
MEASUREMENT PARAMETERS: read-out: BIKE
Label yes (1) for high-side ΔTm at 12.5 µM (at or above 3 °C) and no (0) for low-side ΔTm at 12.5 µM (below it).

- COMPOUND: "CC(C)Oc1cc(Nc2nc(N[C@@H](C)c3ccc(F)cn3)ncc2Cl)n[nH]1"
  CLASSIFICATION: "yes (1)"
- COMPOUND: "CN[C@@H]1C[C@H]2O[C@@](C)([C@@H]1OC)n1c3ccccc3c3c4c(c5c6ccccc6n2c5c31)C(=O)N[C@H]4O"
  CLASSIFICATION: "yes (1)"
- COMPOUND: "O=C1NC(=O)[C@@H](c2cn3c4c(cccc24)CCC3)[C@@H]1c1c[nH]c2ccccc12 [Tivantinib]"
  CLASSIFICATION: "no (0)"
- COMPOUND: "CCN(CC)CCNC(=O)c1c(C)[nH]c(/C=C2\\C(=O)Nc3ccc(F)cc32)c1C"
  CLASSIFICATION: "yes (1)"
- COMPOUND: "C[C@@H](Oc1ccc2[nH]nc(/C=C/c3cnn(CCO)c3)c2c1)c1c(Cl)cncc1Cl"
  CLASSIFICATION: "yes (1)"
